Source listed as ChEMBL document CHEMBL1201862.

Below, each entry is listed alongside its reported EC50.
test.system: Streptokinase A (Streptococcus pyogenes serotype M1)
Sequence (P10520 whole entry): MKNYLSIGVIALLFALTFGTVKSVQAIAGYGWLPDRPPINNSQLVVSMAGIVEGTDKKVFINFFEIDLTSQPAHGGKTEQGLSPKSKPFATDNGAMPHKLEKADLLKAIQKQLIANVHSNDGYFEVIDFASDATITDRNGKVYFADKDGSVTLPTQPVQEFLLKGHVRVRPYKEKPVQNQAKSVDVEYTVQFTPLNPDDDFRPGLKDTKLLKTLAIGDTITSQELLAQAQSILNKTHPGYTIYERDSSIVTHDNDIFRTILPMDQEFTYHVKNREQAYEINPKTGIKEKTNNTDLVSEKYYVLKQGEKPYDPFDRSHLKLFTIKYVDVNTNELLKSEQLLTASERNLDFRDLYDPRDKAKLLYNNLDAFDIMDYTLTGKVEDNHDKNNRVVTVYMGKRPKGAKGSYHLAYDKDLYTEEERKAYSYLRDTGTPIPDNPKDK
protocol.text: viability-normalized secreted streptokinase activity reduction – plasminogen activation absorbance, OD405, dose response (AID 1914);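 further: secreted streptokinase activity via plasminogen activation per viability signal from cell pellet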
Assay type: functional, Streptococcus pyogenes M1 GAS
Calls of active or inactive are those of the source.

Solved cases below.
| structure.string | EC50 |
| --- | --- |
| Cc1ccc(C(=O)NNC2=Nc3cccc4cccc2c34)cc1 | > 150 µM (not active) |
| CCN(CC)c1nc(C(F)(F)F)nc2c1nnn2Cc1ccccc1 | 12.4 µM (active) |

We next turn to a different compound, shown below.
Q) State its EC50: O=C(CSc1nnc(CNC(=O)c2c(F)cccc2F)o1)NCCc1ccccc1
A) > 150 µM (not active)

###

test.system: Aurora kinase A (Homo sapiens);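 further: value from the Navigating the Kinome kinase panel profiling, panel entry STK6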
Sequence (O14965 whole entry): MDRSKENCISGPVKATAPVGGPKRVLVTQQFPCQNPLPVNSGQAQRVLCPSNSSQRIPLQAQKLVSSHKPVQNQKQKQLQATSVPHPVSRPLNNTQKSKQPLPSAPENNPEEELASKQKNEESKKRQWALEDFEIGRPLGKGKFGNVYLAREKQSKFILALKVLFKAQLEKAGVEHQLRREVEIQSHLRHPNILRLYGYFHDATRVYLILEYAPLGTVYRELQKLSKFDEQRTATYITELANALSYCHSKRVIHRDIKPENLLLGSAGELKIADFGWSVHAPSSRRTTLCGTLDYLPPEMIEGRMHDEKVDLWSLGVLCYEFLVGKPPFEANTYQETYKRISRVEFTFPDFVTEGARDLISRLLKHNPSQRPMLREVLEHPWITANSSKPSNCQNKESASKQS
Type: functional
Active and inactive are the calls of the source.
Choose one outcome from this list and give only that: active, inactive

| structure.string | test.system | assigned.label |
| --- | --- | --- |
| COc1ccc(-c2cc(-c3ccccc3)c3cc(Cl)ccc3n2)cc1 | Aurora kinase A (Homo sapiens) | active |

Q) // outcome(item) with item = NC(=NO)c1ccccc1S(=O)(=O)Nc1ccc2c(c1)C(=NO)c1ccccc1-2
A) active

Q) Dear colleague, could you share the recorded outcome for Cc1cccc(-c2cccc3onc(N)c23)c1 when you have a moment?
A) inactive

Q) I'd appreciate the recorded outcome for CCCCN1CCN(c2ccc(-c3nc4c(C(N)=O)cccc4[nH]3)cc2)CC1 from this test.
A) active

###

Each record here notes measured AC50.
test.system: UniProt:P07900
Type: functional, organism-based
The source made the active and inactive calls.

Sample records with AC50:
| compound | AC50 |
| --- | --- |
| Cc1cccc(C)c1NC(=O)COC(=O)c1ccc([N+](=O)[O-])o1 | 2.57 µM (active) |
| Cn1cncc1C#Cc1c(-c2ccsc2)sc2ccccc12 | 7.16 µM (active) |
| CN(CC(=O)Nc1cccc(F)c1)C(=O)c1cn(-c2ccccc2)nc1-c1ccc(Cl)cc1 | 8.31 µM (active) |

Q) Read the entry O=C(Nc1ccc(Cl)cc1Cl)c1cccc(N2C(=O)C=CC2=O)c1 and write its reported AC50.
A) 0.295 µM (active)

Q) Tell us which AC50 value is on record for COc1ccc(C(C[N+](=O)[O-])c2c(C)[nH]n(-c3ccccc3)c2=O)cc1 (stereo not given)
A) 7.91 µM (active)

###

protocol.text: Luminescence Cell-Based Dose Response HTS to Identify Inhibitors of 5'UTR Stem-Loop Driven Prion Protein mRNA Translation in H4 Neuroglioblastoma Cells. [Related pubchem assays: 1827 (Project Summary), 1813 (Primary HTS)]
Assay type: functional
Active and inactive are the calls of the source.
# EC50 per record follows

For orientation, consider the following solved cases.
| molecule | result |
| --- | --- |
| CCOc1ccc(OCC(=O)Nc2nccs2)cc1 | 9.78 µM (active) |
| CN(c1ccccc1C(=O)Nc1cccc([N+](=O)[O-])c1)S(C)(=O)=O | 16.8 µM (active) |
| CN(C)CCCN(C(=O)c1cc(-c2cccs2)nc2ccccc12)c1nc2ccc(F)cc2s1 | 12.2 µM (active) |
| CN1CCN(C2Cc3cc(Cl)ccc3Sc3cc(F)ccc32)CC1 (centres undefined) | > 120 µM (not active) |
| Oc1ccc(Br)cn1 | > 120 µM (not active) |

Read the next record carefully.
Q) Entry O=C1c2ccccc2C(=O)c2c1ncn2-c1ccccc1 needs its EC50 filled in; supply it.
A) 15.6 µM (active)

###

List of AC50 tested on Cytochrome P450 2C9 (Homo sapiens, UniProt P11712).
Sequence (P11712 whole entry): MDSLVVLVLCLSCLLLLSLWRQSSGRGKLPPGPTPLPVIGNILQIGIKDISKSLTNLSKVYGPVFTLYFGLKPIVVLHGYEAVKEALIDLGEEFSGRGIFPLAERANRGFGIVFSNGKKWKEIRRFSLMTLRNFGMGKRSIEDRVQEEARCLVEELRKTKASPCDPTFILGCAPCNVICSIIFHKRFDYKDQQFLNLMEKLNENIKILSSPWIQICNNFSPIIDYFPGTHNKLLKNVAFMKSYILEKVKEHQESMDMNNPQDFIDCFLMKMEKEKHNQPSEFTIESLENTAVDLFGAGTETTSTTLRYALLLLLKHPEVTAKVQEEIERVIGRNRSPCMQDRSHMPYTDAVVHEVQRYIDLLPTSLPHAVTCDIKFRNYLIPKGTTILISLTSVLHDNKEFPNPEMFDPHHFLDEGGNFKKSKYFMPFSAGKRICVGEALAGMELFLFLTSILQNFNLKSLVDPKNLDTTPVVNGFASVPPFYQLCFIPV

| compound | test.system | assay.metric | result |
| --- | --- | --- | --- |
| COc1ccc(Cc2nnc(NC(=O)CSc3ccc(C)cc3)s2)cc1OC | Cytochrome P450 2C9 (Homo sapiens, UniProt P11712) | AC50 | 2.51 µM (inconclusive) |
| COc1ccc(-n2c(CNc3ccc(C)cc3)nnc2SCC(=O)Nc2nc(-c3ccccc3)cs2)cc1 | Cytochrome P450 2C9 (Homo sapiens, UniProt P11712) | AC50 | 7.94 µM (inconclusive) |
| CSc1nc(C)c2c(n1)N(c1ccc(C(C)C)cc1)CC2 | Cytochrome P450 2C9 (Homo sapiens, UniProt P11712) | AC50 | 11.2 µM (inconclusive) |

Q) Print Cytochrome P450 2C9 (Homo sapiens, UniProt P11712) AC50 for O=C(Nc1ccc2nc(-c3ccc(Br)o3)[nH]c2c1)c1ccco1 .
A) 11.2 µM (inconclusive)

Q) Answer briefly: AC50 recorded on Cytochrome P450 2C9 (Homo sapiens, UniProt P11712) for O=C(NC(=S)Nc1cccc(Cl)c1N1CCCC1)c1ccc(-c2cccc([N+](=O)[O-])c2)o1
A) 5.01 µM (inconclusive)

Q) Report AC50 on Cytochrome P450 2C9 (Homo sapiens, UniProt P11712) for this entry: C[C@@H](C(=O)Nc1ccc2ccccc2c1)[C@@H]1C[C@@]1(C)[C@@H](N)c1ccccc1
A) 25.1 µM (inconclusive)

Q) Please indicate recorded AC50 of O=C(Nc1ccc(Cl)cc1)OCc1cc(-c2ccccc2Cl)on1 measured with Cytochrome P450 2C9 (Homo sapiens, UniProt P11712).
A) 1.12 µM (inconclusive)

Q) Give Cytochrome P450 2C9 (Homo sapiens, UniProt P11712) AC50 for the following compound: Cc1ccc(-n2nc3ccc(NC(=O)c4ccc5c(c4)OCO5)cc3n2)cc1
A) 4.47 µM (inconclusive)

Q) Under Cytochrome P450 2C9 (Homo sapiens, UniProt P11712): report AC50 of CC(C)(C)c1ccc(C(=O)NC(Cc2ccccc2)C(=O)O)cc1 (stereo not given) .
A) 25.1 µM (inconclusive)

Q) Report AC50 on Cytochrome P450 2C9 (Homo sapiens, UniProt P11712) for this entry: Cc1ccc(CS(=O)(=O)Cc2ccc(C(=O)NCC3CCCO3)o2)cc1 (stereo not given)
A) 39.8 µM (inconclusive)

###

Listing of recorded IC50 by entry.
test.system: Sentrin-specific protease 8 (Homo sapiens, UniProt Q96LD8)
Sequence (Q96LD8 whole entry): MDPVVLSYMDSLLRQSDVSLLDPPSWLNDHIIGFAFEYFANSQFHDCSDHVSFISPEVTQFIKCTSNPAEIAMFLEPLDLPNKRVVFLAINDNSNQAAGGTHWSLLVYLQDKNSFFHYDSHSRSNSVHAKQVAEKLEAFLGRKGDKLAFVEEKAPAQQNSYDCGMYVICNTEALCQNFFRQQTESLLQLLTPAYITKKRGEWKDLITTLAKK
Assay type: functional
Activity calls are given as the source filed them.

Consider the following illustrative entries.
| compound | IC50 |
| --- | --- |
| O=C(COC(=O)c1ccc([N+](=O)[O-])s1)Nc1cccc(S(=O)(=O)/N=C2/CCCCCN2)c1 | 4.92 µM (active) |
| COc1ccc(C(C[N+](=O)[O-])c2c(C)[nH]n(-c3ccccc3)c2=O)cc1 (stereo unspecified) | 8.32 µM (active) |
| COC(=O)c1ccc(-c2ccc(F)cc2)nc1C | 64.9 µM (active) |

Q) Given COc1cccc(C(=O)NC(=S)Nc2ccc(N(C)C)cc2)c1 , report its IC50 on Sentrin-specific protease 8 (Homo sapiens, UniProt Q96LD8).
A) 21 µM (active)

Q) # return IC50 for O=[N+]([O-])c1ccc(O)c(/C=N/NC(=S)Nc2ccc(Cl)cc2Cl)c1 , test system: Sentrin-specific protease 8 (Homo sapiens, UniProt Q96LD8)
A) 7.38 µM (active)

Q) // fetch IC50; item: Brc1ccc(-c2cn3nc4c(nc3n2)CCCC4)cc1 ; system: Sentrin-specific protease 8 (Homo sapiens, UniProt Q96LD8);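 further: luminescence read-out of SENP8 inhibition, dose-response confirmation following an ultra-high-throughput screen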
A) 17.7 µM (active)

###

protocol.text: NIH3T3 cell viability loss – ATP luminescence, mouse fibroblasts, counter-screen, dose response (AID 2010);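 further: cells exposed to compound for about 90 hours before reading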
Format: functional, cell-based
Calls of active or inactive are those of the source.
assay.metric: EC50

Past entries and their recorded results:
| compound | EC50 |
| --- | --- |
| Cc1cc(OCCCCCN2CCCC2)ccc1Cl | 19.2 µM (active) |
| CN(C)CCCN(C(=O)c1ccc(N2C(=O)CCC2=O)cc1)c1nc2c(F)cccc2s1 | > 30 µM (not active) |
| Cc1nc(C(=O)NC2CCCCC2)sc1C1(C)CC(c2cccnc2)=NO1 (stereo unspecified) | > 60 µM (not active) |
| C/C(Cn1nnc([N+](=O)[O-])n1)=N\NC(=O)c1cccc(Cl)c1 | > 60 µM (not active) |

Q) Dear colleague, please send me the reported EC50 for COc1ccccc1NS(=O)(=O)c1cc(NC(=O)C2CCC2)ccc1N1CCCCC1 when you can.
A) > 30 µM (not active)

Q) Please give the documented EC50 of Cc1c(CN2CCC(CO)(Cc3ccccc3)CC2)c2ccccc2n1C
A) 9.85 µM (active)
